# System: SK-MEL-5 melanoma
# experimentalDetails: NCI-60 one-dose screen, 48 h (100 = growth as untreated, 0 = no growth, -100 = all killed)
# conditionContext: 10 µM unless noted
About 83,000 compounds went through this panel and 20% of them were active in at least one assay; those are over-represented in the sample as a whole.
Returns one of label 1 or label 0; label 1 when growth is >= 90%.

[
  {
    "molecule": "CC(C)[C@]12O[C@H]1[C@@H]1O[C@]13[C@]1(O[C@H]1C[C@H]1C4=C(CC[C@@]13C)C(=O)OC4)[C@@H]2OC(=O)OC(C)(C)C",
    "assaySystem": "SK-MEL-5 melanoma",
    "className": "label 0"
  },
  {
    "molecule": "ClCCN(CCCl)c1ccc(C=NCCc2c[nH]c3ccccc23)cc1",
    "assaySystem": "SK-MEL-5 melanoma",
    "className": "label 0"
  },
  {
    "molecule": "CC[C@@H](C)/C=C(C)/C=C/C(=O)c1c(O)c(-c2ccc(O)cc2)cn(O)c1=O",
    "assaySystem": "SK-MEL-5 melanoma",
    "className": "label 0"
  }
]

*Q* State whether the measured growth reaches 90%, counting equality as reaching it, for N#CC1=C(N)Oc2cc3c(cc2C1c1cccs1)OCO3 (stereo unspecified)
*A* label 0

*Q* Decide: is the reported value of growth for Cc1cc(NC(=O)/C=C/c2ccc([N+](=O)[O-])cc2)ccc1S(=O)(=O)F equal to or greater than 90%?
*A* label 1
